Where do these numbers come from? They come from the supplement of paper PMC9170038.

Tested on: K4 kissing-loop RNA reporter
PROCEDURE DETAILS: apparent KD of K4 kissing-loop reporter; higher = weaker reporter binding
DETAILS: Eterna round: R107; input ligand: FMN 200 uM
Reported apparent KD of K4 kissing-loop reporter values for a set of sequences
Report as a plain number; the unit nM is understood.

Here's what some known entries look like.
>>> reported_measurement("CGUUUAUAGCAGGAUACCAGUACCCAUAAAGUACGUUAAUAGUAGAGUGAUGUUCUAAAGUACCCUUGGCAGCUUCCCGUGACCG [ExTheophylB.V]")
106
>>> reported_measurement("AAAAUAACCCAGUGAUGUUGGUAUCCAGAUACCAGCGACGAAAGUCGCCCUUGGCAGCUGUGGACGUACAAAAUAAGUACGUCCU")
903
>>> reported_measurement("AGCGGCGCGCUGGAUACCAGUGUCCGACGCGUUAGUAUAGAUCCAAAGUGAUGUUUUGGUCACCCUUGGCAGCCACCUCUGUCGG [theeternabot_exclusion_KL_Theo_B_29]")
237

Any idea what apparent KD of K4 kissing-loop reporter was measured for CUCACGCUCACAGAUACCAGUGGUGAUCCGGAUUGUAGUGAUGUUAAUUCCGCCAUCAUACACCCUUGGCAGCUGGCGUCACCUU [theeternabot_sameState_KL_Theo_B_31] ?
799

Now consider UUUUUUAAGAUAUUGACCAACCCGAAGCUACGAGGACCGGUACGGCCGCCACUCGCCAGUGAUGUUGGCGACUGGUGAAACCAUG [KL-XTryp-A24] and answer again.
126

Now consider GUACGCUGCUGAGUGAUGUUCAGCAAUCGCUAGGAUAUCGCUUUUGCGAGAAGGAGCGCAAUGAGGAAACUCGUUGUUAGUGUAC [FMN A 28] and answer again.
166

---

System: K4 kissing-loop RNA reporter;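 further: bound reporter read as fluorescence of individual clusters on recovered sequencing chips by microscopy, with normalized cluster intensities fitted with a binding model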
PROCEDURE DETAILS: apparent KD of K4 kissing-loop reporter; higher = weaker reporter binding
DETAILS: Eterna round: R107; input ligand: tryptophan 2.4 mM
QUANTITY: apparent KD of K4 kissing-loop reporter (µM)
Report as a plain number; the unit µM is understood.

Any idea what apparent KD of K4 kissing-loop reporter was measured for AAUGAUGAUUGACACAUUUACUAAAAGGAAGGAGCGGCGAUGUGGCCAGGUAGGUCGCCUUUUAGCAGUGAUGUUGCUAUAUGUU [JR_Nu_ExcArginiA_Sub026] ?
0.0704

Now consider GCAGCUCGGGAGUGAUGUUCUCGUAGAGGAAAGGAUAUGUACUUAGACAGAAGGUUCGCAAUUUGCGGUCUUAAGAUAGAAUAAC [theeternabot_sameState_KL_FMN_A_40] and answer again.
0.151

Now consider AGAACUGUCUUGGAUACCAGUGAUGUUGGUAUCUAUGUGUGAGUGCAAAGCGUCCCACAUUGCCCUUGGCAGCUAAGACUGUUCA [Omei KL Theo B Exc A v2] and answer again.
0.145

Now consider GUAUCGCUAGGAGGAUAUUUCAUAUAACAUAUAAAUGGAUAUGCGGAGUGAUGUUCCGAUUUACGGAAAGAAGGCCUAGUGAUAC [FMN B 19] and answer again.
0.172

Now consider CCUCUCCUUGAUAGUGAUGUUAUCAAGGACAAGGAUAUCAUCUCAAUGAGAAGGUGUCCUUGAUAACAUGGAGGUCUGAAACAGA [Omei KL FMN A Exc C v1] and answer again.
0.122

Now consider UGAACCGCCCAGUGAUGUUGGGCCAUAGAUACCAGCCUCUCCGACGGCCCUUGGCAGCUAGGGCCCGGCAGGUAGGAGACUCUGC [Orarzasove] and answer again.
0.204

Now consider ACGUCUCGUAAACUCGUGGUUUCGAUCGAUACCAGUAGCGAGAGUUACCCUUGGCAGCGACAUGAGUGAUGUUCAUGUACGAAGA [KL-XTheoA2] and answer again.
0.0903

Now consider AAGUGUGUGGCGGCCGCCACUAGAAUCCAGUGAUGUUGGAGUAAUCAAAUAAAUGAUAAUCAACAUAGGACCGGGCCAUAUAGAA [Same State - Tryptophan B (Freestyle 3)] and answer again.
0.309

Now consider AAAGAUCUUCUAGAAACUAGAAGAUCAAGAGAGGAUAUCCGAAUUCGGAGAAGGCUCGCUAAGUGAUGUUUGGACCCAAAGGGAA [AK3.1 SS FMN A] and answer again.
1.13

Now consider AAUGUAAUGACGGCCGCCACUGAUUACCAGUGAUGUUGGUAAAGAACUUUAUAAGUCCUGGAAACCAGGACCGGGUCAACGGUCC [Tryp B Ex t1] and answer again.
0.258

Now consider AGUGUUGUUUUUUUUAAGAGUGAUGUUUUUCGAGGACCGGUACGGCCGCCACUCGAGUGAUGAGUGAGGUGUGGUGAUGAUUAGU [#10 K4 Tryptophan A Exclusion] and answer again.
0.337

Now consider CUAGGUAACACAGGAUAUGUCCGAGUGAUGUUCGAGCCUUUCCAUUGACGAAAUUAAUGGUGGGUGACAGAAGGGUGAGUACUGA [Uses] and answer again.
0.828

Now consider CGUUUAUAGCAGGAUACCAGUACCCAUAAAGUACGUUAAUAGUAGAGUGAUGUUCUAAAGUACCCUUGGCAGCUUCCCGUGACUG [ExTheophylB.U] and answer again.
0.0529

Now consider AGUAAUGUCACGGCCGCCACUCUUUAUUGUUUUUAUAGUUAUAAAUCUUGCCAGUGAUGUUGGUAGAGGACCGGGUGACUUAAUA [#26 K4 Tryptophan B Same State] and answer again.
0.194

Now consider GCAGGAUGAGGAGGAGGAUGAAUUACUGAAGGAGCGCAUAUUUUUGCAGGUAGGUCGCGGUAAAGAAGUAUAGUGAUGUUAUAUA [SSArgA.K] and answer again.
0.456

Now consider GCCAGAGCGCGAAGGAGCGCCGUGACAGGUUGCUGCCGUGGGCAGUGAUGUUGCUCAAUCUGGCAGGUAGGUCGCGUGCUCUGGC and answer again.
0.248

Now consider AGCGGCGCGCUGGAUACCAGUGUCCGACGCGUUAGUAUAGAUCCAAAGUGAUGUUUUGGUCACCCUUGGCAGCCACCUCUGUCGG [theeternabot_exclusion_KL_Theo_B_29] and answer again.
0.195

Now consider GCAUCCUAGUCGGCCGCCACUAACAUGAGUGAUGUUCAUGUACGUCAGUGAUGUUGACGUAGUUAUAGGACCGGGACUAGGAUGC [KL-SSTryp-B7 Brourdwalk3] and answer again.
0.12
